Origin of measurements: patent US20110224231A1

- Study Target: soluble human BACE (Homo sapiens, UniProt P56817)
- Construct: cells secreting human recombinant soluble BACE; made in house; conditioned medium
- Sequence (P56817 46-457 limits assumed): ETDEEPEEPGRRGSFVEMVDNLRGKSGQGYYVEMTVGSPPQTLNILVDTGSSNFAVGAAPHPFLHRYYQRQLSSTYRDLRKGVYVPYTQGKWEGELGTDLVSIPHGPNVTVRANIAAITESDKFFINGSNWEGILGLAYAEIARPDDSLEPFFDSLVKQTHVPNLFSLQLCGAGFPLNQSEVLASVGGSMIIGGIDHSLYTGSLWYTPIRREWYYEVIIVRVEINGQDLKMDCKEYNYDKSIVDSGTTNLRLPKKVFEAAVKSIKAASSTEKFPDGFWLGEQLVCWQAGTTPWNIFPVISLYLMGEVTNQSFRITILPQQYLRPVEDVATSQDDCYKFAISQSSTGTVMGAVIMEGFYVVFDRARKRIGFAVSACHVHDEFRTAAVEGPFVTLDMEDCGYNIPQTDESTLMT
- Assay Name: BACE activity Cell Free Assay (ELISA of cleaved synthetic APP substrate)
- Format: biochemical
pIC50: −log10 of the molar value.
Property Name: pIC50

{"Compound": "CC(C)Oc1cccc(CN2CC[C@]3(C=CC(=O)N3c3cncc(Cl)c3)C[C@@H]2C)c1 [#117]", "pIC50": "5.00 to 6.00"}

[Q] pIC50 lookup needed for Cc1ccncc1-c1cccc(CN2CCC3(C=CC(=O)N3c3cccc(F)c3)CC2C)c1 (racemic) [Example 21] , thanks.
[A] 5.00 to 6.00

[Q] pIC50 lookup needed for C[C@H]1C[C@@]2(C=CC(=O)N2c2cccc(F)c2)CCN1Cc1ccc(O)c(Cl)c1 [#201] , thanks.
[A] 5.00 to 6.00

[Q] pIC50 lookup needed for CC(C)Cc1ocnc1CN1CC[C@]2(C=CC(=O)N2c2cccc(F)c2)C[C@@H]1C [#200] , thanks.
[A] 5.00 to 6.00

[Q] pIC50 lookup needed for CC1CC2(C=CC(=O)N2c2cccc(F)c2)CCN1Cc1ccc(OC(F)F)c(OC2CC2)c1 (racemic) [Example 80] , thanks.
[A] 3.52 to 4.00

[Q] pIC50 lookup needed for CC[C@@H](C)Oc1cccc(CN2CC[C@]3(CCC(=O)N3c3cccc(F)c3)C[C@@H]2C)c1 [#216] , thanks.
[A] 5.00 to 6.00

[Q] pIC50 lookup needed for CC(C)C(O)c1cc(CN2CCC3(C=CC(=O)N3c3cccc(F)c3)CC2C)ccc1O (stereo not shown) [#205] , thanks.
[A] 6.00 to 9.00

[Q] pIC50 lookup needed for CC1CC2(CCC(=O)N2c2cccc(F)c2)CCN1Cc1nc(-c2cccc(Cl)c2)cs1 (racemic) [Example 81] , thanks.
[A] 3.52 to 4.00
